- MEASUREMENT TARGET: T1, mouse programmed cell death protein 1 Fc fusion protein (mPD-1-Fc), mPD-1 C60S (aa 25-167) (Mus musculus, UniProt Q02242, stabilised)
- T1 construct: not cleaved; source: Expi293F, purified (Protein A, SEC; dimeric fraction); not shown: Fc (human), C-terminal, kept
- MEASUREMENT PROTOCOL: SPR; Carterra LSA; Fab from the ammonium sulfate precipitate of the culture supernatant immobilised on a NiHC200M chip; hPD-1 (1-1024 nM) or mPD-1-Fc (4-1024 nM) as analyte, fourfold dilution series, no regeneration; HBS-EP pH 7.4, 25 °C; medians over the spots of a construct, KD = koff/kon
- STATED CONDITIONS: one partner purified
Recorded Kd, one value per entry.
Please respond with the number in nM and leave the unit unwritten.

toripalimab Fab L.L101T (Fab, V domains shown, as the heavy chain of Sm3; light chain of Sm3 with this change; numbers count from the chain's first residue; source: Brevibacillus, culture supernatant (ammonium sulfate precipitate); not shown: 6xHis, C-terminal, kept; 6xHN, C-terminal, kept) VH: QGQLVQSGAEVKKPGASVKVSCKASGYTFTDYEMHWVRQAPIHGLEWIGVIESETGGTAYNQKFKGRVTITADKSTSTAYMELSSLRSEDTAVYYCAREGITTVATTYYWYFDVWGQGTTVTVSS VL: DVVMTQSPLSLPVTLGQPASISCRSSQSIVHSNGNTYLEWYLQKPGQSPQLLIYKVSNRFSGVPDRFSGSGSGTDFTLKISRVEAEDVGVYYCFQGSHVPTTFGQGTKLEIK
116
toripalimab Fab H.A59Y (Fab, V domains shown, heavy chain of Sm3 with this change; numbers count from the chain's first residue; as the light chain of Sm3; source: Brevibacillus, culture supernatant (ammonium sulfate precipitate); not shown: 6xHis, C-terminal, kept; 6xHN, C-terminal, kept) VH: QGQLVQSGAEVKKPGASVKVSCKASGYTFTDYEMHWVRQAPIHGLEWIGVIESETGGTYYNQKFKGRVTITADKSTSTAYMELSSLRSEDTAVYYCAREGITTVATTYYWYFDVWGQGTTVTVSS VL: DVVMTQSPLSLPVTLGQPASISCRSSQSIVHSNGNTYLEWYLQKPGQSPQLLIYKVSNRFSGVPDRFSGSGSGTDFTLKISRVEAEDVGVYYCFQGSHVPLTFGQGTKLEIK
345

Qu. I'd like to know its Kd. The binder in question is toripalimab Fab H.Y32A (Fab, V domains shown, heavy chain of Sm3 with this change; numbers count from the chain's first residue; as the light chain of Sm3; source: Brevibacillus, culture supernatant (ammonium sulfate precipitate); not shown: 6xHis, C-terminal, kept; 6xHN, C-terminal, kept) VH: QGQLVQSGAEVKKPGASVKVSCKASGYTFTDAEMHWVRQAPIHGLEWIGVIESETGGTAYNQKFKGRVTITADKSTSTAYMELSSLRSEDTAVYYCAREGITTVATTYYWYFDVWGQGTTVTVSS VL: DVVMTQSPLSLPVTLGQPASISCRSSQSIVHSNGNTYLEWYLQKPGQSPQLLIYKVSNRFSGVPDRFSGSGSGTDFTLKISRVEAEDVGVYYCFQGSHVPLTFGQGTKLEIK
Ans. 1310
